All values here come from PubChem BioAssay (NCI).

Dear all, this message contains GI50 results, target or system SK-MEL-2 melanoma.
attribute measured: GI50

compound=CC(=O)Oc1ccccc1C(=O)/C=C/c1cccc([N+](=O)[O-])c1 reported_measurement="15.1 µM"
compound="COc1cc2c(c(OC)c1OC)-c1ccc(SC)c(=O)cc1[C@@H](NC1OC(CO)C(O)C(O)C1O)CC2 (stereo partly drawn)" reported_measurement="0.0237 µM"
compound=O=C1NC(=O)C(c2cccc(Cl)c2)=C1Nc1ccc(O)c(Cl)c1 reported_measurement="7.91 µM"
compound="COc1ccc(OC)c(C2SCC(=O)N2NC(=O)C(O)c2ccccc2)c1 (stereo not drawn)" reported_measurement="> 100 µM"
compound=Nc1ccc(-c2nc3ccccc3[nH]2)c2ccccc12 reported_measurement="14.2 µM"
compound=COc1ccc(/C=N/NC(=O)Cn2c(-c3ccc(S(C)(=O)=O)cc3)nc3cc(Cl)ccc32)cc1 reported_measurement="1.13 µM"
compound=C#CCOc1cccc(Nc2ncnc3c(NC(=O)CCl)cccc23)c1 reported_measurement="21.1 µM"
compound="CC1OC(O[C@H]2/C=C/C=C/C=C/C=C/C=C/C=C/C=C/[C@H](C)[C@@H](O)[C@@H](C)[C@H](C)OC(=O)CC(O)CC(O)CCC(O)C(O)CC(O)C[C@]3(O)C[C@H](O)C(C(=O)O)C(C2)O3)C(O)[C@H](N)C1O (stereo partly drawn)" reported_measurement="3.9 µM"

====

Measured TGI, listed per entry.
Test system: DMS 114 small cell lung
Test: NCI tumour cell line growth inhibition, 48 h
attribute measured: TGI (µM)

molecule=c1ccc(P(=Nc2ccccc2N=P(c2ccccc2)(c2ccccc2)c2ccccc2)(c2ccccc2)c2ccccc2)cc1 system_name="DMS 114 small cell lung" relation_symbol== reported_measurement=2.68
molecule=C/C=C(\C)c1cc(O)c(C)c2c1Oc1cc(O)c(Cl)c(C)c1C(=O)O2 system_name="DMS 114 small cell lung" relation_symbol== reported_measurement=74.9
molecule=COc1ccc(C(Cl)=C(c2ccc(OCCN(C)C)cc2)c2ccc(OCCN(C)C)cc2)cc1 system_name="DMS 114 small cell lung" relation_symbol== reported_measurement=3.06
molecule=CCCCCCN(N)C(=O)CC#N system_name="DMS 114 small cell lung" relation_symbol=> reported_measurement=100
molecule="O=C(NC1CCCC1=O)c1ccccc1 (stereo unspecified)" system_name="DMS 114 small cell lung" relation_symbol=> reported_measurement=100
molecule="CC1CN1c1c(C(=O)/C=C/c2ccccc2)c(-c2ccccc2)nn(C)c1=O (stereo unspecified)" system_name="DMS 114 small cell lung" relation_symbol== reported_measurement=43.8
molecule=CCOC(=O)C(=O)Nc1cc(Cl)ccc1Cl system_name="DMS 114 small cell lung" relation_symbol=> reported_measurement=100
molecule="O=C(Cc1ccccc1)NN1C(=O)C(Cl)C1c1ccccc1O (stereo unspecified)" system_name="DMS 114 small cell lung" relation_symbol== reported_measurement=46.5
molecule=CN(C)c1ccc(/C=C2\C=Cc3ccccc32)cc1 system_name="DMS 114 small cell lung" relation_symbol== reported_measurement=89.6
molecule=CCO/C=C1\N=C(c2ccccc2Br)OC1=O system_name="DMS 114 small cell lung" relation_symbol=> reported_measurement=100
molecule="CC(NC(C)(C)C)C(=O)c1cccc(Cl)c1 (stereo unspecified)" system_name="DMS 114 small cell lung" relation_symbol=> reported_measurement=100
